The reader will find IC50 measurements below, all made with human arginase I (ARG I) (Homo sapiens (Human), UniProt P05089).
Sequence (P05089 whole entry): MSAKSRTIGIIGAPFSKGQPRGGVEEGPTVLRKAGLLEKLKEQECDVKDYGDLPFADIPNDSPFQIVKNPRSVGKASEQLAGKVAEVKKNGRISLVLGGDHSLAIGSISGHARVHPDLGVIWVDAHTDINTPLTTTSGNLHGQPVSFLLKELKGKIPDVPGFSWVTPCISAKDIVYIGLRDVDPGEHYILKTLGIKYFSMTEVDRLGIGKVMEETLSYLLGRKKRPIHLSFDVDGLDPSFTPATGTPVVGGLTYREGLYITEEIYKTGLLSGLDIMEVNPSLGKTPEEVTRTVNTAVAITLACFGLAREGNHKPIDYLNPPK

molecule	subjectOfTest	measured
Cn1ccnc1CN1C[C@H](CCCB(O)O)[C@](N)(C(=O)O)C1	human arginase I (ARG I) (Homo sapiens (Human), UniProt P05089)	0.1 to 250 nM
N[C@@]1(C(=O)O)CCO[C@H]1CCCB(O)O	human arginase I (ARG I) (Homo sapiens (Human), UniProt P05089)	0.1 to 250 nM
NC(Cc1ccccc1)CN1C[C@H](CCCB(O)O)[C@](N)(C(=O)O)C1 (mixture of isomers)	human arginase I (ARG I) (Homo sapiens (Human), UniProt P05089)	0.1 to 250 nM
N[C@@]1(C(=O)O)CN(C(=O)C2Cc3ccccc3CN2)C[C@@H]1CCCB(O)O (mixture of isomers)	human arginase I (ARG I) (Homo sapiens (Human), UniProt P05089)	0.1 to 250 nM
N[C@@]1(C(=O)O)CN(C(=O)Cc2ccc(Cl)cc2)C[C@@H]1CCCB(O)O	human arginase I (ARG I) (Homo sapiens (Human), UniProt P05089)	251 to 1000 nM

Lookup: Provide the documented IC50 with human arginase I (ARG I) (Homo sapiens (Human), UniProt P05089) as the system for NC(Cc1ccc(C(F)(F)F)cc1)C(=O)N1C[C@H](CCCB(O)O)[C@](N)(C(=O)O)C1 (mixture of isomers)
Found: 251 to 1000 nM

Lookup: Provide the documented IC50 with human arginase I (ARG I) (Homo sapiens (Human), UniProt P05089) as the system for N[C@@]1(C(=O)O)CNC[C@H]1CCCB(O)O
Found: 1000 to 2000 nM

Lookup: Provide the documented IC50 with human arginase I (ARG I) (Homo sapiens (Human), UniProt P05089) as the system for N[C@H]1C[C@H](CCCB(O)O)[C@](N)(C(=O)O)C1
Found: 251 to 1000 nM

Lookup: Provide the documented IC50 with human arginase I (ARG I) (Homo sapiens (Human), UniProt P05089) as the system for N[C@@]1(C(=O)O)CN(CC2Cc3cc(Cl)ccc3CN2)C[C@@H]1CCCB(O)O (stereo partly drawn)
Found: 0.1 to 250 nM

Lookup: Provide the documented IC50 with human arginase I (ARG I) (Homo sapiens (Human), UniProt P05089) as the system for N[C@@]1(C(=O)O)CCNC[C@@H]1CCCB(O)O
Found: 251 to 1000 nM

Lookup: Provide the documented IC50 with human arginase I (ARG I) (Homo sapiens (Human), UniProt P05089) as the system for N[C@@]1(C(=O)O)CCNC[C@H]1CCCB(O)O
Found: 251 to 1000 nM

Lookup: Provide the documented IC50 with human arginase I (ARG I) (Homo sapiens (Human), UniProt P05089) as the system for N[C@@]1(C(=O)O)CN(CCNCc2ccccc2)C[C@@H]1CCCB(O)O
Found: 0.1 to 250 nM

Lookup: Provide the documented IC50 with human arginase I (ARG I) (Homo sapiens (Human), UniProt P05089) as the system for N[C@@]1(C(=O)O)CN(C(=O)Nc2ccc(F)cc2)C[C@@H]1CCCB(O)O (racemic)
Found: 251 to 1000 nM

Lookup: Provide the documented IC50 with human arginase I (ARG I) (Homo sapiens (Human), UniProt P05089) as the system for N[C@@]1(C(=O)O)CCC[C@H]1CCCB(O)O
Found: > 5000 nM

Lookup: Provide the documented IC50 with human arginase I (ARG I) (Homo sapiens (Human), UniProt P05089) as the system for N[C@@]1(C(=O)O)CN(CCNCc2ccc(Cl)c(Cl)c2)C[C@@H]1CCCB(O)O
Found: 0.1 to 250 nM
